# CCR2 % ANTAG listing for each entry below
TESTED_TARGET: CCR2 (Homo sapiens, UniProt P41597)
Construct: expressed in transfected cells
Sequence (P41597 whole entry, species assumed): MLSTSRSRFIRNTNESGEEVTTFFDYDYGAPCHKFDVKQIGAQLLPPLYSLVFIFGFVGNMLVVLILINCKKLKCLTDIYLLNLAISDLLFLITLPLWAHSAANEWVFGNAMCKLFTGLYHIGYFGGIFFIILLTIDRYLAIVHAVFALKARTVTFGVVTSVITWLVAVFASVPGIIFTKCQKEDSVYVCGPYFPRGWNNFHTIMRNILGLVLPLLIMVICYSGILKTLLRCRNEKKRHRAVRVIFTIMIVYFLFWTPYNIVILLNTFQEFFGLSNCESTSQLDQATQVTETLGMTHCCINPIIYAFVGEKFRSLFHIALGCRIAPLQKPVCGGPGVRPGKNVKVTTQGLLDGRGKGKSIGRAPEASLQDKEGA
PROCEDURE_SUMMARY: CCR2 calcium activity assay on FLIPR Tetra in HEK-Gqi5 cells stably expressing CCR2
Type: cell-based
Write the value in % as a bare number.

As a guide, the following entries are already answered.
Cn1sc(=O)c2cc(S(=O)(=O)Nc3ccc(Cl)cc3NS(=O)(=O)c3cccs3)ccc21; 102
Cn1sc(=O)c2cc(S(=O)(=O)Nc3cc(Cl)c(Cl)cc3NS(=O)(=O)c3cccs3)ccc21; 99
Cn1sc(=O)c2cc(S(=O)(=O)Nc3cc(Cl)c(Cl)cc3Cl)ccc21; 79

Now let's try a different one.
Reported CCR2 % ANTAG ( Cc1ccc(NS(=O)(=O)c2cccs2)c(NS(=O)(=O)c2ccc3c(c2)c(=O)sn3C)c1 ) = 102
